Entry source: PubChem BioAssay (NCI)

System: MCF7 breast
testName: NCI-60 one-dose screen, 48 h (100 = growth as untreated, 0 = no growth, -100 = all killed)
testConditions: 10 µM unless noted
Compounds without any hit were thinned out: in the full panel of roughly 83,000, 20% have a hit. Activity calls are given as the source filed them. Rule for the calls: active = growth percent below 10; inactive = the rest.
quantityKind: growth

input: State the recorded growth for this entry: O=C(NNc1ccc(-c2ccccc2)nn1)c1ccccc1
output: 92% (inactive)

input: O=C(COc1cccc(/C=C2\Oc3ccccc3C2=O)c1)c1ccc([N+](=O)[O-])cc1 , same question.
output: 50.7% (inactive)

input: CC(C)=CC/C=C(/C)[C@H]1CC[C@]2(C)[C@@H]1CC[C@@H]1[C@@]3(C)CCC(=O)NC(C)(C)[C@@H]3CC[C@]12C , same question.
output: 8.52% [100 µM] (active)

input: COc1cc(OC)cc(C(=O)Nc2cc(-c3cccnc3)nc(NCCCN3CCOCC3)n2)c1 , same question.
output: 88% (inactive)

input: O=C(O)c1cn(C2CC2)c2cc(N3CCN(Cc4c(O)ccc5ccccc45)CC3)c(F)cc2c1=O , same question.
output: 16.3% (inactive)

input: CCOC(=O)C1=C(C(=O)c2ccc(Br)cc2)C(c2ccc(Br)cc2)NC(=S)N1 (stereo unspecified) , same question.
output: 102% (inactive)

input: CCOc1ccc2sc(NS(=O)(=O)c3ccc(N)cc3)nc2c1 , same question.
output: 97.4% (inactive)

input: NC(=S)Cc1ccccc1 , same question.
output: 91% (inactive)

input: Cc1ccc(NC(=S)/N=c2/n(-c3ccccc3)nc3n2CCN3C2=NCCN2)cc1 , same question.
output: 94.6% (inactive)

input: C[C@H]1[C@H](C)CC[C@]2(COC(=O)CCC(=O)O)CC[C@]3(C)C(=CC[C@@H]4[C@@]5(C)CCCNC(C)(C)[C@@H]5CC[C@]43C)[C@H]12 , same question.
output: 54.9% [100 µM] (inactive)

input: COc1ncc(-c2ccc3nccc(C#CCCCCC(=O)O)c3c2)cc1NS(=O)(=O)c1ccc(F)cc1F , same question.
output: 6.95% (active)
